# Tested on: ABC-1
# Measurement protocol: relative viability (nuclei count vs DMSO), 5 days (fraction); higher = more cells survive
# Applied conditions: first compound 0.5 µM
Entries and their measured relative viability follow.

# annotated cases, reported relative viability shown
[
  {
    "Compound": "Nc1ccn([C@@H]2O[C@H](CO)[C@@H](O)[C@@H]2O)c(=O)n1 [Cytarabine] + CCNC(=O)c1noc(-c2cc(C(C)C)c(O)cc2O)c1-c1ccc(CN2CCOCC2)cc1 [Luminespib] (partner 0.01 µM)",
    "relative viability": 0.281
  },
  {
    "Compound": "Nc1ccn([C@@H]2O[C@H](CO)[C@@H](O)[C@@H]2O)c(=O)n1 [Cytarabine] + O=C(CCCCCCC(=O)Nc1ccccc1)NO [Vorinostat] (partner 1 µM)",
    "relative viability": 0.744
  },
  {
    "Compound": "Nc1ccn([C@@H]2O[C@H](CO)[C@@H](O)[C@@H]2O)c(=O)n1 [Cytarabine] + O=C(c1cc(Cc2n[nH]c(=O)c3ccccc23)ccc1F)N1CCN(C(=O)C2CC2)CC1 [Olaparib] (partner 8 µM)",
    "relative viability": 0.61
  }
]

Task: Can you look up relative viability on ABC-1 for Nc1ccn([C@@H]2O[C@H](CO)[C@@H](O)[C@@H]2O)c(=O)n1 [Cytarabine] + COc1cccc2cc(-c3nc([C@H]4CC[C@H](C(=O)O)CC4)n4ncnc(N)c34)[nH]c12 [OSI-027] (partner 0.5 µM) ?
Result: 0.259

Task: Can you look up relative viability on ABC-1 for COc1cc2nccc(Oc3ccc(NC(=O)Nc4cc(C)on4)c(Cl)c3)c2cc1OC [Tivozanib] + COc1cccc2cc(-c3nc([C@H]4CC[C@H](C(=O)O)CC4)n4ncnc(N)c34)[nH]c12 [OSI-027] (partner 0.5 µM) ?
Result: 0.395

Task: Can you look up relative viability on ABC-1 for COc1cc2nccc(Oc3ccc(NC(=O)Nc4cc(C)on4)c(Cl)c3)c2cc1OC [Tivozanib] + COc1cc2c(Oc3ccc(NC(=O)C4(C(=O)Nc5ccc(F)cc5)CC4)cc3F)ccnc2cc1OCCCN1CCOCC1 [Foretinib] (partner 0.25 µM) ?
Result: 1.02

Task: Can you look up relative viability on ABC-1 for COc1cc2nccc(Oc3ccc(NC(=O)Nc4cc(C)on4)c(Cl)c3)c2cc1OC [Tivozanib] + O=C(c1cc(Cc2n[nH]c(=O)c3ccccc23)ccc1F)N1CCN(C(=O)C2CC2)CC1 [Olaparib] (partner 8 µM) ?
Result: 0.67

Task: Can you look up relative viability on ABC-1 for Nc1ccn([C@@H]2O[C@H](CO)[C@@H](O)[C@@H]2O)c(=O)n1 [Cytarabine] + CS(=O)(=O)CCNCc1ccc(-c2ccc3ncnc(Nc4ccc(OCc5cccc(F)c5)c(Cl)c4)c3c2)o1 [Lapatinib] (partner 2 µM) ?
Result: 1.03

Task: Can you look up relative viability on ABC-1 for Nc1ccn([C@@H]2O[C@H](CO)[C@@H](O)[C@@H]2O)c(=O)n1 [Cytarabine] + CS(=O)(=O)N1CCN(Cc2cc3nc(-c4cccc5[nH]ncc45)nc(N4CCOCC4)c3s2)CC1 [Pictilisib] (partner 1 µM) ?
Result: 0.325

* * *

# Tested on: NCI-H1666
# Measurement protocol: relative viability (nuclei count vs DMSO), 5 days (fraction); higher = more cells survive
# Applied conditions: first compound 0.04 µM
Observable: relative viability
Give only the figure.

# annotated cases, reported relative viability shown
[
  {
    "Compound": "Cc1sc2c(c1C)C(c1ccc(Cl)cc1)=N[C@@H](CC(=O)OC(C)(C)C)c1nnc(C)n1-2 [JQ1] + Cc1nc(NC(=O)N2CCC[C@H]2C(N)=O)sc1-c1ccnc(C(C)(C)C(F)(F)F)c1 [Alpelisib] (partner 2 µM)",
    "relative viability": 0.802
  },
  {
    "Compound": "Cc1sc2c(c1C)C(c1ccc(Cl)cc1)=N[C@@H](CC(=O)OC(C)(C)C)c1nnc(C)n1-2 [JQ1] + C[C@]1(O)C[C@@H](c2nc(-c3ccc4ccc(-c5ccccc5)nc4c3)c3c(N)nccn32)C1 [Linsitinib] (partner 1 µM)",
    "relative viability": 0.811
  }
]

Please turn your attention to the following entry.
Task: // returns reported relative viability for input Cc1sc2c(c1C)C(c1ccc(Cl)cc1)=N[C@@H](CC(=O)OC(C)(C)C)c1nnc(C)n1-2 [JQ1] + CC(=O)c1c(C)c2cnc(Nc3ccc(N4CCNCC4)cn3)nc2n(C2CCCC2)c1=O [Palbociclib] (partner 0.5 µM)
Result: 0.646

Data provenance is the supplement of paper PMC10307832.
